Each recorded value in this set is attributed to ChEMBL document CHEMBL1158042.

- Tested on: Trichoderma harzianum
- Test Summary: Antimicrobial activity against Trichoderma harzianum ATCC 64870 after 24 hrs
- Type: functional
- Experimental Setup: ATCC 64870, 24 h
Starred links: 1 amine or outer side, 2 acyl side, 3 side chain; linkers in the order of their positions; H or OH if unused. Positions of bridges follow the written chain, without caps; N, C: chain ends. Non-standard residues stand in square brackets, D forms with d. Residues, ends and D or L forms follow the SMILES beside them. Chains are numbered I, II in the order given. Actinocin(1to9) = Cc1c2oc3c(C)ccc(C(=O)[*:2])c3nc-2c(C(=O)[*:1])c(N)c1=O; NMeV = CN[C@H](C(=O)O)C(C)C; Sar = CNCC(=O)O
Metric: MIC (mg/L)

CC1=C[C@@H]2[C@@H]([C@@H](/C=C/C=C/C(=O)O)[C@H]1/C(C)=C/CO)[C@H](C)CC[C@H]2O :: 50
C/C=C(\C)[C@H]1C(C)=C[C@@H]2[C@@H]([C@H]1/C=C/C=C/C(=O)O)[C@H](C)CC[C@H]2O :: 50
Cc1c2oc3c(C)ccc(C(=O)N[C@@H]4C(=O)N[C@H](C(C)C)C(=O)N5CCC[C@H]5C(=O)N(C)CC(=O)N(C)[C@@H](C(C)C)C(=O)O[C@@H]4C)c3nc-2c(C(=O)N[C@@H]2C(=O)N[C@H](C(C)C)C(=O)N3CCC[C@H]3C(=O)N(C)CC(=O)N(C)[C@@H](C(C)C)C(=O)O[C@@H]2C)c(N)c1=O [DACTINOMYCIN] (I: T[dV]P[Sar][NMeV] / II: T[dV]P[Sar][NMeV]; ester I:1-I:C, II:1-II:C; linker I:N-II:N via Actinocin(1to9)) :: 6.25

---

- Tested on: Bacillus subtilis
- Test Summary: Antimicrobial activity against Bacillus subtilis ATCC 6633 after 18 hrs
- Type: functional
- Experimental Setup: ATCC 6633, 18 h
Metric: MIC (µg/mL)

CC1(C)S[C@@H]2[C@H](NC(=O)Cc3ccccc3)C(=O)N2[C@H]1C(=O)O :: 3.12
CC1=C[C@@H]2[C@@H]([C@@H](/C=C/C=C/C(=O)O)[C@H]1/C(C)=C/CO)[C@H](C)CC[C@H]2O :: 50
Oc1cccc2c(-c3ccc(O)c4c(O)cccc34)ccc(O)c12 :: 100
C/C=C(\C)[C@H]1C(C)=C[C@@H]2[C@@H]([C@H]1/C=C/C=C/C(=O)O)[C@H](C)CC[C@H]2O :: 50
CC(=O)OC/C=C/C1=CC2=C(CO1)C(=O)[C@](C)(O)[C@H](OC(=O)c1c(C)cc(O)cc1O)C2 :: 50

---

Each entry below carries its reported MIC.
- System: Trichoderma harzianum
- Test Summary: Antimicrobial activity against Trichoderma harzianum ATCC 64870 after 24 hrs
- Type: functional
- Experimental Setup: ATCC 64870, 24 h
Metric: MIC

CC(=O)OC/C=C/C1=CC2=C(CO1)C(=O)[C@](C)(O)[C@H](OC(=O)c1c(C)cc(O)cc1O)C2 :: > 100 µg/mL
CC1(C)S[C@@H]2[C@H](NC(=O)Cc3ccccc3)C(=O)N2[C@H]1C(=O)O :: > 100 µg/mL
Oc1cccc2c(-c3ccc(O)c4c(O)cccc34)ccc(O)c12 :: > 100 µg/mL
